- assay.summary: soluble on expression in E. coli; label from the status in PepcDB or PDB records
reported.endpoint: soluble on expression in E. coli

biosequence=STYPPTPPNVTRLSDESVMLRWMVPRNDGLPIVIFKVQYRMVGKRKNWQTTNDNIPYGKPKWNSELGKSFTASVTDLKPQHTYRFRILAVYSNNDNKESNTSAKFYLQPGAALDPMPVPELLEIEEYSETAVVLHWSLASDADEHLITGYYAYYRPSSSAGEYFKATIEGAHARSFKIAPLETATMYEFKLQSFSAASASEFSALKQGRTQRPK reported_endpoint="soluble on expression in E. coli" result=soluble
biosequence=SEFQSTVVATVDCQKQVRSWRLLRSFIQLLIPTCNCTLVQELEQDNTNLRGKKLYNDIKSRTSSFRSSSSLSSSTVTGTIFGYRKGKINFCIQTPRKSTNLDLLLELAVPTTVLAREMREGALRIVLERNNEKQDDDSFLSKPFWNMYCNGKRVGYARKRSPSQDDMTALTALSKVVVGAGVVTGKELGRFDDELMYLRASFRRVNGSKESESFHLIDPAGNIGQELSIFIVPSSV reported_endpoint="soluble on expression in E. coli" result=soluble
biosequence=IREAIARNPQEIFQYVRLSQVKRDDKVLGYRVSPGKDPVLFESIGLQDGDMAVALNGLDLTDPNVMNTLFQSMNEMTEMSLTVERDGQQHDVYIQF reported_endpoint="soluble on expression in E. coli" result="not soluble"
biosequence=EMEEREIINNVFEFGDMQAKNAMVQRIDMVAIDMEDSYDEIIQVFKTEKLSRMPVYEETIDDIVGILNIKDIIFLSDEEIESFDIKNYMREPFFTYEFKKITQLLEEMKLEKSQMAIVVDEYGGTSGLLTIEDLVEVIVGDIE reported_endpoint="soluble on expression in E. coli" result=soluble
biosequence=SWMANQFFLLEEYTGSDYQYVGKLHSDQDRGDGSLKYILSGDGAGDLFIINENTGDIQATKRLDREEKPVYILRAQAVNRRTGRPVEPESEFIIKIHDINDNEPIFTKDVYTATVPEMADVGTFVVQVTATDADDPTYGNSAKVVYSILQGQPYFSVESETGIIKTALLNMDRENREQYQVVIQAKDMGGQMGGLSGTTTVNITLTD reported_endpoint="soluble on expression in E. coli" result=soluble
biosequence=VDYSRTETLQFEDDEYYYYVKAVPKVGVTLPEKQVKHITEPHEEQPKEAKAAVNLKPEPMVQETVAIDTSQIQEADLEKNVDELLLTQSLNEELRQNQNEPEDDLSLTKSLGDLWTKKPGSGE reported_endpoint="soluble on expression in E. coli" result="not soluble"
biosequence=MDKKTACAHVAEPCEFSYSTRDAIIYALGVGARAKEDLCYVYENHEDFKVLPSYIVAPGFQAHTLMDWPGVEFDLQRVLHGEQYIEVYQPLSAEGKLKSEARVVDILDKGSGALILGNVTTYDENGKKIAMQQFSTFQTGSGNFGGDRTSPHEIKAATVPDRAPDAVIEQKTTVDQAALYRLGSGDMNPLHVDPEFAKMSGFKTPILHGLCSLGFATRHVIAAWAGNDSDKFKAIKVRFSSPVLPGQTLVTETWKNGKRIIFQMKVKETGKIVISNAFIDLHEASELPTVPIDLASKL reported_endpoint="soluble on expression in E. coli" result="not soluble"
biosequence=MADQYHEPVSELTGKDRDFVRALNSLKEEIEAVAWYHQRVVTTKDETVRKILEHNRDEEMEHAAMLLEWLRRNMPGWDEALRTYLFTDKPITEIEEETSGGSENTGGDLGIRKL reported_endpoint="soluble on expression in E. coli" result=soluble
